Literature-derived Ki for Adenosine receptor A1 (Rattus norvegicus) follows.
Lab note: anything with Ki below 100 nM is marked met; values at 100 nM or higher are marked not met.

Reference set, count: 4
COMPOUND	ASSAY TARGET	CLASS NAME
CN(C)c1nc(NC(=O)Cc2ccccc2)n2nc(-c3ccco3)nc2n1	Adenosine receptor A1 (Rattus norvegicus)	not met
COc1cc2oc(-c3ccc(O)cc3O)c(CC=C(C)C)c(=O)c2c(O)c1/C=C/C(C)C	Adenosine receptor A1 (Rattus norvegicus)	not met
CCCn1c(=O)c2nc(-c3ccc(C(F)(F)F)cc3)[nH]c2n(CCC)c1=O	Adenosine receptor A1 (Rattus norvegicus)	met
CC(C#Cc1cn2nc(-c3ccco3)nc2c(N)n1)OC(C)(C)C (stereo not given)	Adenosine receptor A1 (Rattus norvegicus)	met

Please determine if CCOC(=O)c1cnc2c(cnn2CC(Cl)c2ccccc2)c1N1CCCC1 (stereo not given) is below 100 nM in terms of Ki.
not met
